Value source: patent US20150320892A1

Assay System: recombinant human DPP-IV (Homo sapiens, UniProt P27487)
Sequence (P27487 whole entry): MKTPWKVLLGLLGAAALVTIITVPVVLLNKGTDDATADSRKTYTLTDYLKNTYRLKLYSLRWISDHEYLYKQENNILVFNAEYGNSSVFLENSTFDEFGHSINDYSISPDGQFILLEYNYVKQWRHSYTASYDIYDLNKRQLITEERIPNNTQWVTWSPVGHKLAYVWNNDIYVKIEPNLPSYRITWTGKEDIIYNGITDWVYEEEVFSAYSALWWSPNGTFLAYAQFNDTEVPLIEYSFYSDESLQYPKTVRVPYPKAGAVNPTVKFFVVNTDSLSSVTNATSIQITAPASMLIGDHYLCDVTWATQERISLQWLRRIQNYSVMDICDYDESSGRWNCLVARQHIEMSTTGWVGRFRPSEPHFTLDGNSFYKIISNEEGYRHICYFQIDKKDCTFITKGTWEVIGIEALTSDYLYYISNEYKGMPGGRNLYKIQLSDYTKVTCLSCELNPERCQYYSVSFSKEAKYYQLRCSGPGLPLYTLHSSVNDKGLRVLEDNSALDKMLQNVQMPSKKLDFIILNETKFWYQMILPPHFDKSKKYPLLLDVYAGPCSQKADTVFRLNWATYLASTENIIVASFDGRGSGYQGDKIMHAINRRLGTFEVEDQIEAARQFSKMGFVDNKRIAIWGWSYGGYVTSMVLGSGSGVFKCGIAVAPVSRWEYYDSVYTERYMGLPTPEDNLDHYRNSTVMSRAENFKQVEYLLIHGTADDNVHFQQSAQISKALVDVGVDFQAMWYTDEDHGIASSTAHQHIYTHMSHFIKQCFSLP
Assay Procedure: DPP-IV assay kit (BPS Bioscience), inhibition of enzymatic activity, Gly-Pro-AMC fluorogenic substrate
Condition Notes: 10 min, 22° C
Experimental Endpoint: IC50

Challenge: Please report the recorded IC50 for O=C(NCC(=O)N1CCC[C@H]1B(O)O)c1cccc2ccccc12 [FAP reference, reference compound] .
Response given: > 50 µM
